Hello, the source for this data is PubChem BioAssay (EPA / NIEHS), in case you need it.

Experiment: BSK_CASM3C_SRB: Viability Assessment in the BioMAP Diversity Plus: CASM3C Assay (AID 2283050);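 note: total protein by SRB staining as cytotoxicity measure in parallel cultures; cells exposed to compound for 24 h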
Settings: primary human coronary artery smooth muscle cells
The source made the active and inactive calls. Rule for the calls: active = hit-call score of the fitted dose curve at least 0.9, where 1 is the maximum; inactive = score below 0.9.
Permitted responses: True for active, False for inactive

Worked examples, 3 compounds total:
{"columns": ["compound", "assigned_label"],
 "data": [
  ["CC(C)(C)CC(C)(C)c1ccc(O)c(-n2nc3ccccc3n2)c1", "False"],
  ["CCc1ccc(CCOc2ccc(CC3SC(=O)NC3=O)cc2)nc1 (stereo unspecified)", "False"],
  ["CCCCOCCO", "False"]
]}

Query string: Can you look up the reported call for OC1CCCCC1 for me?
Result string: False

Query string: Repeat for the following compound: CC(=O)NC1(c2cccc(F)c2)CCN(CC[C@@]2(c3ccc(Cl)c(Cl)c3)CN(c3ccccc3)C(=O)CO2)CC1
Result string: True

Query string: Repeat for the following compound: CCCCCCCCOC(=O)CCCCCCCCC(=O)OCCCCCCCC
Result string: False

Query string: Repeat for the following compound: COc1ccc([N+](=O)[O-])cc1N
Result string: False

Query string: Repeat for the following compound: Oc1cc2ccccc2c2ccccc12
Result string: True

Query string: Repeat for the following compound: CCCCCCCC(=O)O
Result string: False

Query string: Repeat for the following compound: CCc1nn(C2CCCCC2)c2cc(C3(C#N)CCC(C(=O)O)CC3)ccc12 (stereo unspecified)
Result string: False

Query string: Repeat for the following compound: COCC(C)O (stereo unspecified)
Result string: False

Query string: Repeat for the following compound: CN1CCC[C@H]1c1cccnc1
Result string: False

Query string: Repeat for the following compound: COC(=O)CCCCC(=O)OC
Result string: False

Query string: Repeat for the following compound: CCCCCCCCC(=O)O
Result string: False

Query string: Repeat for the following compound: CCCOc1sc(C(=O)N2CCC(c3cc(CN)ccc3F)CC2)c(C)c1Br
Result string: True

Query string: Repeat for the following compound: CCC(C)(C)C1CCC(O)CC1 (stereo unspecified)
Result string: False

Query string: Repeat for the following compound: Cc1oc(-c2ccccc2)nc1CCOc1ccc(C[C@H](Nc2ccccc2C(=O)c2ccccc2)C(=O)O)cc1
Result string: True

Query string: Repeat for the following compound: CN(C)C=O
Result string: False

* * *

Read-out: Low-density lipoprotein receptor (LDLR), LDLR (gene 3949)
Experiment: BSK_CASM3C_LDLR: BioMAP Diversity Plus: CASM3C Assay for Low-density lipoprotein receptor (LDLR) Biomarker Activity (AID 2283045);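 note: LDLR protein level on the cell surface quantified by ELISA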
Details: primary human coronary artery smooth muscle cells; actives raise or lower the signal
Active and inactive are the calls of the source. Rule for the calls: active = hit-call score of the fitted dose curve at least 0.9, where 1 is the maximum; inactive = score below 0.9.
test_readout: AC50

Some compounds with recorded AC50:
{"columns": ["compound", "AC50"],
 "data": [
  ["c1ccc2cc3c(ccc4ccccc43)cc2c1", "inactive"],
  ["CCCCCCCCCCCCCC[N+](C)(C)C", "8.07 µM (active)"],
  ["CC(C)(C)CC(C)(C)c1ccc(O)c(-n2nc3ccccc3n2)c1", "20 µM (active)"],
  ["CC#C[C@]1(O)CC[C@H]2[C@@H]3CCC4=CC(=O)CCC4=C3[C@@H](c3ccc(N(C)C)cc3)C[C@@]21C", "inactive"],
  ["CC1=C(/C=C/C(C)=C/C=C/C(C)=C/C(=O)O)C(C)(C)CCC1", "inactive"]
]}

Query string: Entry Cc1cc(C)c(O)c(C)c1 has what AC50?
Result string: inactive

Query string: Repeat for the following compound: c1ccc2c(c1)ccc1ccccc12
Result string: inactive

Query string: Repeat for the following compound: COCC(C)O (stereo not drawn)
Result string: inactive

Query string: Repeat for the following compound: CC[C@H](c1ccc(O)cc1)[C@@H](CC)c1ccc(O)cc1
Result string: inactive

Query string: Repeat for the following compound: Oc1cc2ccccc2c2ccccc12
Result string: 10.1 µM (active)

Query string: Repeat for the following compound: C#C[C@]1(O)CC[C@H]2[C@@H]3CCC4=CC(=O)CC[C@@H]4[C@H]3CC[C@@]21C
Result string: inactive

Query string: Repeat for the following compound: N#C[C@@H]1CC(F)(F)CN1C(=O)CNC1CC2CCC(C1)N2c1ncccn1 (stereo partly drawn)
Result string: inactive

Query string: Repeat for the following compound: c1ccc2c(c1)Cc1ccccc1-2
Result string: inactive

* * *

Read-out: Cytochrome P450 3A7 (Homo sapiens)
Assay: LTEA_HepaRG_CYP3A7: Life Technologies and Expression Analysis (LTEA) Assay for CYP3A7 using HepaRG (AID 2283492)
Conditions: mRNA level, 48 h; actives raise or lower the signal
Activity calls are given as the source filed them. How the source made its calls: active means hit-call score of the fitted dose curve at least 0.9, where 1 is the maximum; inactive means score below 0.9.
Permitted responses: active, inactive

Worked examples, 5 compounds total:
{"columns": ["compound", "assigned_label"],
 "data": [
  ["COc1ccc([N+](=O)[O-])cc1N", "inactive"],
  ["CC(C)CCCCCCOC(=O)CCCCC(=O)OCCCCCCC(C)C", "inactive"],
  ["c1ccc2cc3c(ccc4ccccc43)cc2c1", "active"],
  ["c1ccc2c(c1)ccc1ccccc12", "active"],
  ["C[C@@H]1C[C@H]2[C@@H]3CCC4=CC(=O)C=C[C@]4(C)[C@@]3(F)[C@@H](O)C[C@]2(C)[C@@]1(O)C(=O)COP(=O)(O)O", "inactive"]
]}

Query string: Can you look up the reported call for Oc1cc2ccccc2c2ccccc12 for me?
Result string: inactive

Query string: Repeat for the following compound: ClC1=C(Cl)C(Cl)(Cl)C(Cl)=C1Cl
Result string: inactive

Query string: Repeat for the following compound: Nc1cccc2c(N)cccc12
Result string: inactive

Query string: Repeat for the following compound: CCC(C)(C)C1CCC(O)CC1 (centres undefined)
Result string: inactive

Query string: Repeat for the following compound: CC(C)(C)CC(C)(C)c1ccc(O)c(-n2nc3ccccc3n2)c1
Result string: inactive

Query string: Repeat for the following compound: CCCOc1sc(C(=O)N2CCC(c3cc(CN)ccc3F)CC2)c(C)c1Br
Result string: inactive

Query string: Repeat for the following compound: CCN(CC)CCNc1ccc(CNC=O)c2sc3ccc(OC)cc3c(=O)c12
Result string: active

Query string: Repeat for the following compound: NC(=O)N(O)[C@@H]1C=C[C@H](Oc2cccc(Oc3ccc(F)cc3)c2)C1
Result string: active

Query string: Repeat for the following compound: OCCC(F)(F)C(F)(F)C(F)(F)C(F)(F)C(F)(F)C(F)(F)C(F)(F)C(F)(F)F
Result string: inactive

Query string: Repeat for the following compound: CCCCCCC(=O)O
Result string: inactive

Query string: Repeat for the following compound: O=[N+]([O-])c1ccc(O)cc1
Result string: inactive

Query string: Repeat for the following compound: CCOC(=O)CC(O)(CC(=O)OCC)C(=O)OCC
Result string: inactive

Query string: Repeat for the following compound: Cc1cc(CCN2CCN(c3nsc4ccccc34)CC2)cc2c1NC(=O)CC2(C)C
Result string: active

Query string: Repeat for the following compound: COCC(C)O (centres undefined)
Result string: inactive

* * *

Read-out: Monocyte Chemoattractant Protein-1 (MCP1), CCL2 (gene 6347)
Assay: BSK_4H_MCP1: BioMAP Diversity Plus: 4H Assay for Monocyte Chemoattractant Protein-1 (MCP1) Biomarker Activity (AID 2283018)
Conditions: primary human endothelial cells (HUVEC); actives raise or lower the signal
Calls of active or inactive are those of the source. The calls were made as follows: active = hit-call score of the fitted dose curve at least 0.9, where 1 is the maximum; inactive = score below 0.9.
Permitted responses: active, inactive

Worked examples, 3 compounds total:
{"columns": ["compound", "assigned_label"],
 "data": [
  ["OCCC(F)(F)C(F)(F)C(F)(F)C(F)(F)C(F)(F)C(F)(F)F", "inactive"],
  ["O=C(OCCOCCOC(=O)c1ccccc1)c1ccccc1", "inactive"],
  ["CCC(C)(C)C1CCC(O)CC1 (stereo not given)", "inactive"]
]}

Query string: Can you look up the reported call for OC1CCC(C2CCCCC2)CC1 (stereo not given) for me?
Result string: inactive

Query string: Repeat for the following compound: O=C(O)c1ccccc1C(c1ccc(O)cc1)c1ccc(O)cc1
Result string: inactive

Query string: Repeat for the following compound: CC[C@H](c1ccc(O)cc1)[C@@H](CC)c1ccc(O)cc1
Result string: active

Query string: Repeat for the following compound: CCc1nn(C2CCCCC2)c2cc(C3(C#N)CCC(C(=O)O)CC3)ccc12 (stereo not given)
Result string: inactive

Query string: Repeat for the following compound: COc1ccc([N+](=O)[O-])cc1N
Result string: inactive

Query string: Repeat for the following compound: Cc1cc(CCN2CCN(c3nsc4ccccc34)CC2)cc2c1NC(=O)CC2(C)C
Result string: active

Query string: Repeat for the following compound: CCCCCCCCCCCCCCCS(=O)(=O)Oc1ccccc1
Result string: inactive

Query string: Repeat for the following compound: Cc1cc(C)c(O)c(C)c1
Result string: inactive

Query string: Repeat for the following compound: C#C[C@]1(O)CC[C@H]2[C@@H]3CCC4=CC(=O)CC[C@@H]4[C@H]3CC[C@@]21C
Result string: inactive

Query string: Repeat for the following compound: NC(=O)N(O)[C@@H]1C=C[C@H](Oc2cccc(Oc3ccc(F)cc3)c2)C1
Result string: inactive

Query string: Repeat for the following compound: CCCCCCCCOC(=O)CCCCCCCCC(=O)OCCCCCCCC
Result string: inactive

Query string: Repeat for the following compound: c1ccc2c(c1)ccc1ccccc12
Result string: inactive
